# tested-system: RIPK1 (receptor-interacting serine/threonine-protein kinase 1) (Homo sapiens (Human))
# Sequence (Q13546 whole entry, species assumed): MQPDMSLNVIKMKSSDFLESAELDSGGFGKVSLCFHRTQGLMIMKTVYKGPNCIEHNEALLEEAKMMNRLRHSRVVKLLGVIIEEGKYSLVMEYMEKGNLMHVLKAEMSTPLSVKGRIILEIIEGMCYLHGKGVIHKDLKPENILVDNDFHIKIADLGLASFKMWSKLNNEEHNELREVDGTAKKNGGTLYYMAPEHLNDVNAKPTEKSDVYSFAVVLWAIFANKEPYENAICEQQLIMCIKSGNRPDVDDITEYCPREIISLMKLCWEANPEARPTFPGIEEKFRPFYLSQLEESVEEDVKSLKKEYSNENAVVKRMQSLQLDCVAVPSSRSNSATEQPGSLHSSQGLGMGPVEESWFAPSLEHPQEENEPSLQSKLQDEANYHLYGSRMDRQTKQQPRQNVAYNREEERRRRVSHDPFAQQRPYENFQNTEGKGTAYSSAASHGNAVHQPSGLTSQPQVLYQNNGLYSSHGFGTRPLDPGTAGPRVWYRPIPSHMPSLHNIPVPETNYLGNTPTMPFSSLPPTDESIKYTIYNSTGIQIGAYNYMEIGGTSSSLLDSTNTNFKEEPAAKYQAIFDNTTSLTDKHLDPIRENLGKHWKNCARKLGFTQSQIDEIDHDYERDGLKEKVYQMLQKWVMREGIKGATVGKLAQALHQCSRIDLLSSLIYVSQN
# assay-details: IC50 to RIPK1, immuno-precipitated enzyme with [32P]γ-ATP
# Type: biochemical
# measurement-context: 10-0.05 μM, 100 μM ATP
pIC50: −log10 of the molar value.
Label yes when pIC50 is at or above 7; anything below gets no.

{"columns": ["smiles-input", "tested-system", "category-label"],
 "data": [
  ["O=C(c1cc2c(-c3ccc(F)cc3)ccnc2s1)N1CCOCC1", "RIPK1 (receptor-interacting serine/threonine-protein kinase 1) (Homo sapiens (Human))", "no"],
  ["O=C(c1cc2c(-c3cccc(F)c3)cccc2s1)N1CCOCC1", "RIPK1 (receptor-interacting serine/threonine-protein kinase 1) (Homo sapiens (Human))", "yes"],
  ["O=C(c1cc2c(-c3ccc(F)cc3)cccc2s1)N1CCSCC1", "RIPK1 (receptor-interacting serine/threonine-protein kinase 1) (Homo sapiens (Human))", "no"]
]}

----------
# tested-system: RIPK1 (receptor-interacting serine/threonine-protein kinase 1) (Homo sapiens (Human))
# assay-details: RIPK1 inhibitory activity, autophosphorylation of immuno-precipitated RIPK1 with [32P]γ-ATP
# Type: biochemical
# measurement-context: compound 100 μM; remaining RIPK1 phosphorylation
Quick list: activity at 100 µM per entry.

{"columns": ["compound", "activity at 100 µM / %"],
 "data": [
  ["O=C(c1cc2c(SCc3ccc(F)cc3)cccc2s1)N1CCOCC1 [Example 71]", 87],
  ["O=C(c1cc2c(Nc3ccc(F)cc3)cccc2s1)N1CCOCC1 [Example 68]", 33.5],
  ["O=C(c1cc2c(-c3ccccc3F)cccc2s1)N1CCOCC1 [Example 30]", 0.4],
  ["O=C(c1cc2c(-c3ccc(F)cc3)cccc2s1)N1CCC(O)CC1 [Example 48]", 25.5],
  ["O=C(c1cc2cc(Cl)ccc2[nH]1)N1CCOCC1 [Example 12]", 60],
  ["O=C(c1cc2cccc(Br)c2s1)N1CCOCC1 [Example 29]", 82.5],
  ["Fc1ccc(-c2cccc3sc(CN4CCOCC4)cc23)cc1 [Example 7]", 87.1],
  ["CCN(CC)C(=O)c1cccc2sc(C(=O)N3CCOCC3)cc12 [Example 20]", 77],
  ["COc1ccc2oc(C(=O)N3CCOCC3)cc2c1 [Example 26]", 81.4],
  ["O=C(c1cc2c(-c3ccc(OC(F)(F)F)cc3)cccc2s1)N1CCOCC1 [Example 45]", 86.7],
  ["O=C(c1cc2c(-c3ccc4[nH]ccc4c3)cccc2s1)N1CCOCC1 [Example 9]", 76],
  ["O=C(O)C1COCCN1C(=O)c1cc2c(-c3ccc(F)cc3)cccc2s1 (centres unmarked) [Example 8]", 88.5],
  ["O=C(c1cc2c(-c3ccc(F)cc3)cccc2s1)N1CCOC1 [Example 46]", 11],
  ["O=C(c1cc2c(-c3ccc(F)cc3)cccc2s1)N1CCCCC1 [Example 47]", 20],
  ["O=C(c1cc2c(Br)cnc(Cl)c2s1)N1CCOCC1 [Example 1]", 52.5],
  ["CSc1ccc(-c2cccc3sc(C(=O)N4CCOCC4)cc23)cc1 [Example 50]", 47.5],
  ["O=C(O)c1ccc(-c2cccc3sc(C(=O)N4CCOCC4)cc23)cc1 [Example 33]", 90],
  ["O=C(c1cc2cc(-c3ccc(F)cc3)ccc2s1)N1CCOCC1 [Example 40]", 57.5],
  ["O=C(c1cc2cc(Br)ccc2o1)N1CCOCC1 [Example 16]", 88],
  ["O=C(c1cc2c(Nc3ccc(F)cc3F)cccc2s1)N1CCOCC1 [Example 58]", 78.5]
]}
